Where these numbers come from: patent EP4755449A2

Target: T1, human latent myostatin (human, UniProt O14793 25-266; O14793 267-375)
T1 construct: non-covalent complex of two propeptides and the mature homodimer; also called human myostatin latent form
T1 sequence 1: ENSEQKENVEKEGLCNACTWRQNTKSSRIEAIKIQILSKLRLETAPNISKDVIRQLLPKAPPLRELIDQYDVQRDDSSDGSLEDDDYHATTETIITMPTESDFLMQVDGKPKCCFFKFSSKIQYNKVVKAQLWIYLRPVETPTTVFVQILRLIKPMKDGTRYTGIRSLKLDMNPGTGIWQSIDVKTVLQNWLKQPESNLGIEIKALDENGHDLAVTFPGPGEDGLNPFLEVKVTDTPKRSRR
T1 sequence 2: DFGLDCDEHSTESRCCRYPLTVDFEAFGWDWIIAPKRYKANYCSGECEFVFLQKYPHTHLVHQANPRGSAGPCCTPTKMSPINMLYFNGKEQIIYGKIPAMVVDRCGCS
Experiment: SPR avidity condition pH5.8 37C; pH 5.8
Consider the following binders and their measured kon readings.
Metric: kon (M⁻¹ s⁻¹)

[
  {
    "Binder": "MS_M103205H781-SG1/M103202L719-SK1 (antibody, human IgG1, kappa, V domains shown, also called MS1032LO02-SG1) VH: QVTLKESGPVLVKPTETLTLTCTVSGIDLSHTDISWVRQAPGKGLEWVGIISYAGSTYYMSWAKGRLTISKDTSKNQVVLTMTNMDPVDTATYYCARGVPAYSHGGDLWGQGTLVTVSS VL: DIVMTQSPATLSLSPGERATLSCQSSQSVYHNNWLSWFQQKPGQPPKLLIYWASTLAFGVPSRFSGSGSGTDFTLTISSLQPEDAATYYCAGGYGGGLYAFGQGTKVEIKR",
    "Endpoint Unit": "M⁻¹ s⁻¹",
    "Assay Value": "1.7e+06"
  },
  {
    "Binder": "MS_M103205H000-SG1/M103202L000-SK1 (antibody, human IgG1, kappa, V domains shown, humanized; also called MS1032LO00-SG1; Ab001) VH: QVTLKESGPVLVKPTETLTLTCTVSGIDLSSYDISWVRQAPGKGLEWVGIISYAGSTYYASWAKGRLTISKDTSKNQVVLTMTNMDPVDTATYYCARGVPAYSTGGDLWGQGTLVTVSS VL: DIVMTQSPATLSLSPGERATLSCQSSQSVYDNNWLSWFQQKPGQPPKLLIYWASTLASGVPSRFSGSGSGTDFTLTISSLQPEDAATYYCAGGYGGGLYAFGQGTKVEIKR",
    "Endpoint Unit": "M⁻¹ s⁻¹",
    "Assay Value": "1.6e+06"
  },
  {
    "Binder": "MS_M103205H781-SG1/M103202L813-SK1 (antibody, human IgG1, kappa, V domains shown, also called MS1032LO03-SG1) VH: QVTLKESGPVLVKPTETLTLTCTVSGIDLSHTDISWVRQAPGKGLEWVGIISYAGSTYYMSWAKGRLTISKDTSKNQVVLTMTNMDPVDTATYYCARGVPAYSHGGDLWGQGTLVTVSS VL: DIVMTQSPATLSLSPGERATLSCQTSQSVYHDNWLSWFQQKPGQPPKLLIYWASTLASGVPSRFSGSGSGTDFTLTISSLQPEDAATYYCAGGYGGGRYAFGQGTKVEIKR",
    "Endpoint Unit": "M⁻¹ s⁻¹",
    "Assay Value": 543000
  },
  {
    "Binder": "MS_M103205H707-SG1/M103202L802-SK1 (antibody, human IgG1, kappa, V domains shown, also called MS1032LO04-SG1) VH: QVTLKESGPVLVKPTETLTLTCTVSGIDLSHYDISWVRQAPGKGLEWVGIISYAGSTYYASWAKGRLTISKDTSKNQVVLTMTNMDPVDTATYYCARGVPAYSHGGDLWGQGTLVTVSS VL: DIVMTQSPATLSLSPGERATLSCTSSQSVYHDNWLSWFQQKPGQPPKLLIYWASTLAYGVPSRFSGSGSGTDFTLTISSLQPEDAATYYCAGGYGGGLYAFGQGTKVEIKR",
    "Endpoint Unit": "M⁻¹ s⁻¹",
    "Assay Value": 781000
  },
  {
    "Binder": "MS_M103205H714-SG1/M103202L861-SK1 (antibody, human IgG1, kappa, V domains shown, also called MS1032LO01-SG1) VH: QVTLKESGPVLVKPTETLTLTCTVSGIDLSHTDISWVRQAPGKGLEWVGIISYAGSTYYASWAKGRLTISKDTSKNQVVLTMTNMDPVDTATYYCARGVPAYSHGGDLWGQGTLVTVSS VL: DIVMTQSPATLSLSPGERATLSCTSSQSVYHNNWLSWFQQKPGQPPKLLIYWASTLAYGVPSRFSGSGSGTDFTLTISSLQPEDAATYYCAGGYGGGRYAFGQGTKVEIKR",
    "Endpoint Unit": "M⁻¹ s⁻¹",
    "Assay Value": "1.22e+06"
  }
]
